Known Percent Effect of a selection of compounds
Species on record: Homo sapiens
Test: To identify inhibition of the IFN signalling (Jak-Stat) pathway via expression of an eGFP reporter gene under the control of an IFN-stimulated response element (ISRE) containing MxA promoter.
Format: functional
Set-up: scale not given: direction of the effect not stated beside the values
Conditions: 30 µM
Unit % implied. Number only.

Some entries whose results are on file:
COMPOUND: Cc1ccc(NC(=O)Nc2cnc(N3CCN(C)CC3)nc2)c(Cl)c1
Percent Effect / %: 6.92
--
COMPOUND: CSC(C)(C)CNC(=O)NC1CCSCC1
Percent Effect / %: 4.48
--
COMPOUND: COc1ccc(C2OC(COc3ccccc3Br)=NN2C(C)=O)cc1 (stereo not drawn)
Percent Effect / %: 4.18
--
COMPOUND: Cc1noc(CN2CCC(c3ccnn3CCO)CC2)n1
Percent Effect / %: 4.82
--
COMPOUND: COC(=O)c1cccc(NC(=O)CCn2nc(-c3cccs3)oc2=O)c1
Percent Effect / %: 7.13
--
COMPOUND: COc1cccc(NC(=O)N(CCO)Cc2ccsc2)c1
Percent Effect / %: 11.8
--
COMPOUND: CCNC(=O)NC(=O)CSC(C)c1c(F)cccc1F (stereo not drawn)
Percent Effect / %: 10.5
--
COMPOUND: O=C(NCc1cc[nH]n1)N1CCN(c2ccccc2Cl)CC1
Percent Effect / %: 15.6
--
COMPOUND: Cn1cnnc1C1CCN(c2cncc(-n3cccn3)n2)CC1
Percent Effect / %: -3.56
--
COMPOUND: O=C(NCC1CCS(=O)(=O)C1)c1sccc1-c1ccc(F)cc1 (stereo not drawn)
Percent Effect / %: 4.09

Now consider a different compound.
Entry CC(NC(=O)CCC(=O)c1cccs1)c1nnc2n1CCCCC2 (stereo not drawn) ; Percent Effect = 10
